Tested on: Escherichia coli IAI1
Assay: fold change of Cadaverine concentration vs plate DMSO controls (fold change (ratio)); higher = more amine produced, active = hit call of the paper (significant change in both replicates, either direction)
Conditions: incubation time: 27 h, anaerobic, 37 °C
Structures can show the parent of a compound that is named as a salt.
readout-label: fold change of Cadaverine concentration

1) CN(C)CCc1c[nH]c2ccc(Cn3cncn3)cc12 [Rizatriptan benzoate] (20 µM): 1.02 (inactive)
2) CC(=O)Nc1ccc(CC(=O)O)cc1 [Actarit] (20 µM): 0.96 (inactive)
3) CCOC(=O)C(C)(C)Oc1ccc(Cl)cc1 [Clofibrate] (20 µM): 0.919 (inactive)
4) NCc1ccccc1CC(=O)N[C@@H]1C(=O)N2C(C(=O)O)=C(CSc3nnnn3CC(=O)O)CS[C@H]12 [Ceforanide] (20 µM): 1.95 (active)
5) CCN(CCCCOC(=O)c1ccc(OC)c(OC)c1)C(C)Cc1ccc(OC)cc1 (stereo not drawn) [Mebeverine hydrochloride] (20 µM): 1.04 (inactive)
6) COc1cc(C)c(/C=C/C(C)=C/C=C/C(C)=C/C(=O)O)c(C)c1C [Acitretin] (20 µM): 0.971 (inactive)
7) Clc1ccc(C(c2ccccc2Cl)C(Cl)Cl)cc1 (stereo not drawn) [Mitotane] (20 µM): 1.03 (inactive)
8) CCOC(=O)c1c(N)sc2c1CCN(Cc1ccccc1)C2 [Tinoridine hydrochloride] (20 µM): 0.954 (inactive)

###

As shown below, each of these compounds has a reported growth value.
Tested on: Klebsiella aerogenes DSM 30053
Test: growth (OD595) fold change vs plate DMSO controls (fold change (ratio)); higher = more growth
Conditions: incubation time: 27 h, anaerobic, 37 °C
readout-label: growth

1. NC(=O)OCC(COC(N)=O)c1ccccc1 [Felbamate] (20 µM): 0.988
2. CC(=O)Nc1ccc(O)cc1 [Acetaminophen] (20 µM): 0.999
3. CCN(CC)C(=O)c1cccnc1 [Nikethamide] (20 µM): 0.998
4. CC(C)(C)C(O)/C=C/c1ccc2c(c1)OCO2 (stereo not given) [Stiripentol] (20 µM): 1
5. Nc1nc(N)c2nc(-c3ccccc3)c(N)nc2n1 [Triamterene] (20 µM): 0.969

###

Tested on: Ruminococcus gnavus DSM 108212
Test: fold change of Tryptamine concentration vs plate DMSO controls (fold change (ratio)); higher = more amine produced, active = hit call of the paper (significant change in both replicates, either direction)
Conditions: incubation time: 27 h, anaerobic, 37 °C
Where a name gives a salt, the structure may show the parent alone.
Each entry below carries its reported fold change of Tryptamine concentration.
readout-label: fold change of Tryptamine concentration

1. Cc1cc(C(=O)NNCc2ccccc2)no1 [Isocarboxazid] (20 µM): 1.07
2. O=C(O)COc1nn(Cc2ccccc2)c2ccccc12 [Bendazac] (20 µM): 0.986
3. C[C@@](Cc1ccc(O)c(O)c1)(NN)C(=O)O [Carbidopa] (20 µM): 1
4. CO/N=C(\C(=O)N[C@@H]1C(=O)N2C(C(=O)O)=C(COC(C)=O)CS[C@H]12)c1csc(N)n1 [Cefotaxime sodium salt] (20 µM): 0.0769
5. CN1CCN(C2=Nc3ccccc3Oc3ccc(Cl)cc32)CC1 [Loxapine succinate] (20 µM): 0.962
6. Nc1nc2ccc(OC(F)(F)F)cc2s1 [Riluzole hydrochloride] (20 µM): 0.96
7. C#C[C@]1(OC(C)=O)CC[C@H]2[C@@H]3CCC4=CC(=NO)CC[C@@H]4[C@H]3CC[C@@]21CC (mixture of isomers) [Norgestimate] (20 µM): 0.888
8. CC(=O)CC(c1ccccc1)c1c(O)c2ccccc2oc1=O (stereo not drawn) (20 µM): 0.984
9. O=C(OCC(O)CO)c1ccccc1Nc1ccnc2cc(Cl)ccc12 (stereo not drawn) [Glafenine hydrochloride] (20 µM): 1.03
10. CCc1c(C)[nH]c2c1C(=O)C(CN1CCOCC1)CC2 (stereo not drawn) [Molindone hydrochloride] (20 µM): 1.07
11. C[C@H](CS)C(=O)N1CCC[C@H]1C(=O)O [Captopril] (20 µM): 1.04
12. OCCN1CCN(CCCN2c3ccccc3Sc3ccc(C(F)(F)F)cc32)CC1 [Fluphenazine dihydrochloride] (20 µM): 0.878
13. CC1(C)[C@@H](OC(=O)CCC(=O)O)CC[C@]2(C)[C@H]3C(=O)C=C4[C@@H]5C[C@@](C)(C(=O)O)CC[C@]5(C)CC[C@@]4(C)[C@]3(C)CC[C@@H]12 [Carbenoxolone disodium salt] (20 µM): 1.04
14. COc1ccccc1OCCNCC(O)COc1cccc2[nH]c3ccccc3c12 (stereo not drawn) [Carvedilol] (20 µM): 0.977
15. Cc1ccc(S(=O)(=O)NC(=O)NN2CC3CCCC3C2)cc1 (stereo not drawn) [Gliclazide] (20 µM): 1.12
16. Cc1cc(C(C)(C)CC(C)(C)C)ccc1OCCOCC[N+](C)(C)Cc1ccccc1 [Methyl benzethonium chloride] (20 µM): 0.726
17. CC(=O)OC(C)OC(=O)C(C)c1ccc(-c2ccccc2)c(F)c1 (stereo not drawn) [Flurbiprofen axetil] (20 µM): 1.07
18. Cc1onc(-c2ccccc2)c1C(=O)N[C@@H]1C(=O)N2[C@@H]1SC(C)(C)[C@@H]2C(=O)O [Oxacillin sodium] (20 µM): 0.0465
19. C[C@@H]1CCO[C@H]2Cn3cc(C(=O)NCc4ccc(F)cc4F)c(=O)c(O)c3C(=O)N12 [Dolutegravir] (20 µM): 0.954
20. CCCCCCCCCCCCCCCCCCCCCC(=O)Nc1ccn([C@@H]2O[C@H](CO)[C@@H](O)[C@@H]2O)c(=O)n1 [Enocitabine] (20 µM): 0.913
21. CCC1(C)CC(=O)NC1=O (stereo not drawn) [Ethosuximide] (20 µM): 0.992
22. CN1CCOC(c2ccccc2)c2ccccc2C1 (stereo not drawn) [Nefopam hydrochloride] (20 µM): 1.02
23. CCCCc1oc2ccc(NS(C)(=O)=O)cc2c1C(=O)c1ccc(OCCCN(CCCC)CCCC)cc1 [Dronedarone hydrochloride] (20 µM): 0.8
24. CC[C@H](C)[C@H](N)C1=N[C@H](C(=O)N[C@@H](CC(C)C)C(=O)N[C@H](CCC(=O)O)C(=O)N[C@H](C(=O)N[C@H]2CCCCNC(=O)[C@H](CC(N)=O)NC(=O)[C@@H](CC(=O)O)NC(=O)[C@H](Cc3cnc[nH]3)NC(=O)[C@@H](Cc3ccccc3)NC(=O)[C@H]([C@@H](C)CC)NC(=O)[C@@H](CCCN)NC2=O)[C@@H](C)CC)CS1 [Bacitracin] (20 µM): 0.0521
25. C=C1/C(=C\C=C2/CCC[C@]3(C)[C@@H]([C@H](C)/C=C/[C@@H](O)C4CC4)CC[C@@H]23)C[C@@H](O)C[C@@H]1O [Calcipotriene] (20 µM): 1.01
26. C[C@]12CC[C@H]3[C@@H](CCC4=CC(=O)CC[C@@]43C)[C@@H]1CC[C@@H]2C(=O)CO [Deoxycorticosterone] (20 µM): 1.03
27. COc1cc(Cc2cnc(N)nc2N)cc(OC)c1OC [Trimethoprim] (20 µM): 0.895
28. N=C(N)NCCN1CCCCCCC1 [Guanethidine sulfate] (20 µM): 1.1
